Record form. Attribute: hERG current change (%, negative = inhibition) at 1uM. Fill in for each entry.
target-system: human ether-à-go-go-related gene (hERG) potassium channel (human, UniProt Q12809)
Sequence (Q12809 whole entry, looked up): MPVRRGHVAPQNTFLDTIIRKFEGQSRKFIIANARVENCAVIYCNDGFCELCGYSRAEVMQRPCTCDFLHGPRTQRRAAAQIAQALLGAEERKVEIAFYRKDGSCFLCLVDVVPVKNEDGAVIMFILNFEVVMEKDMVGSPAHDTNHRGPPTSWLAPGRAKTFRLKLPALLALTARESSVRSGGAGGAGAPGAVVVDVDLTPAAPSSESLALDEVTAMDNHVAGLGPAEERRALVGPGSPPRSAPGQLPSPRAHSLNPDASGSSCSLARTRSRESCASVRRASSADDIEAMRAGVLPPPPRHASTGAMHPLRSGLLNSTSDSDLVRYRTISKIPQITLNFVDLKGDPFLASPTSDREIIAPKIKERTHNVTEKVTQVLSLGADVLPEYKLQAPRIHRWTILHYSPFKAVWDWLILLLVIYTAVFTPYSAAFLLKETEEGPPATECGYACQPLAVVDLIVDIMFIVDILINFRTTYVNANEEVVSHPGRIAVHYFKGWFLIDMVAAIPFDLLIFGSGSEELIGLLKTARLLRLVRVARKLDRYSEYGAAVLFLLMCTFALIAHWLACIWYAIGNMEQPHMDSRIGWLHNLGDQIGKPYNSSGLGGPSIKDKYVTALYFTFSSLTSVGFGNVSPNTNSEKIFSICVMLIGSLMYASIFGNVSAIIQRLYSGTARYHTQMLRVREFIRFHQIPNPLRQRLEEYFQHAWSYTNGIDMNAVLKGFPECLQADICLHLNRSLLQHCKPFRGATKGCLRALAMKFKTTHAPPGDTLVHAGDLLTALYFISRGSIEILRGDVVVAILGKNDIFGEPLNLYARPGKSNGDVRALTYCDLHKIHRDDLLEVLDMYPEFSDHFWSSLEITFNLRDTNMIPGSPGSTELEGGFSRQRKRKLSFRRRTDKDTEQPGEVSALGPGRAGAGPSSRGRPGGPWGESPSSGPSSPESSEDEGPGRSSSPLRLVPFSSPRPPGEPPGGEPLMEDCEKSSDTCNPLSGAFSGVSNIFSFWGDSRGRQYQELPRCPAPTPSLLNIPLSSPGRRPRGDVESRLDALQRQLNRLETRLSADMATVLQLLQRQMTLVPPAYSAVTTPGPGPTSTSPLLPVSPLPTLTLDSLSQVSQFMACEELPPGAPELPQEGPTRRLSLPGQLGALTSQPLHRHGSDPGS
protocol: primary screen, population patch clamp on CHO cells stably expressing hERG; higher = less effect of the substance
Screen size: about 310,000 compounds; about 2,200 (0.71%) showed an effect of 50% or more. The effect is printed as a negative number. This is one part of a sample in which strong results are shown more often than they occur.

Some solved entries appear below for comparison.
smiles-string: Clc1ccc(C[n+]2cc(-c3ccccc3)n3c2CCC3)cc1.[Cl-]
result: 7.34%
--
smiles-string: COc1ccc(-c2c[n+]3c4n2CCCCC4=C(c2ccccc2)C3)cc1.[Br-]
result: -74.7%
--
smiles-string: COc1ccc(-c2c[n+]3c4n2CCCCC4=C(c2ccc(Br)cc2)C3)cc1.[Br-]
result: -79.6%
--
smiles-string: COc1ccc(C[C@H]2CN3C(=NC[C@H]3Cc3ccccc3)N2CCNC(=O)c2ccc(C)c(Br)c2)cc1
result: -24.7%
--
smiles-string: COc1ccc(-c2c[n+]3c(n2-c2ccccc2)CCCCC3)cc1.[Br-]
result: 2.74%

Here are 4 molecules. What values of hERG current change (%, negative = inhibition) at 1uM were reported for them?
1. COc1ccc(C(=O)C[n+]2cc(-c3ccc(OC)cc3)n3c2CCCC3)cc1.[Br-]
2. Cc1ccc(C(=O)NCCN2C3=NC[C@H](C(C)C)N3C[C@H]2Cc2ccc(O)cc2)cc1Br
3. O=C(C[n+]1cc(-c2ccc(Cl)cc2)n2c1CCCCC2)c1ccccc1.[Br-]
4. Clc1ccc(C2=C3CCCCn4c(-c5ccccc5)c[n+](c43)C2)cc1.[Br-]

A)
1. 11.5%
2. 0.0506%
3. -2.53%
4. -83.1%

* * *

target-system: human ether-à-go-go-related gene (hERG) potassium channel (human, UniProt Q12809)
protocol: primary screen, population patch clamp on CHO cells stably expressing hERG; higher = less effect of the substance
The campaign covered roughly 310,000 compounds. About 2,200 (0.71%) showed an effect of 50% or more. The effect is printed as a negative number. The full list was thinned out, with strong results kept by preference.
quantity: hERG current change (%, negative = inhibition) at 1uM (%)
Answers are plain numbers, in %.

# example entries with known answers
compound: Cc1ccc(C#CC[N+]2(CC#Cc3ccc(C)cc3)CCCCC2)cc1.[Br-]
result: -51.8
//
compound: Cc1cccc(CN2CCN(CC(=O)NCc3ccc(F)cc3)C2=O)c1
result: 7.12
//
compound: Cc1ccccc1OCC(O)CN1CCN(C)CC1.Cl (stereo not shown)
result: 5.66

For every item below, please supply its hERG current change (%, negative = inhibition) at 1uM.
1. Nc1nc(CN2CCN(c3ccccc3)CC2)nc(Nc2ccc(Cl)cc2)n1
2. CCn1c(SCC(=O)Nc2ccc(C)cc2)nc2nc3c(cc2c1=O)COC(C)(C)C3

A)
1. -44.8
2. -76.5

Hi, could you look up hERG current change (%, negative = inhibition) at 1uM for each item in my list?
1. Fc1ccc(CN2CCCCCCC2)c(F)c1
2. CCn1c(SCC(=O)Nc2ccc(C(C)=O)cc2)nc2nc3c(cc2c1=O)COC(C)(C)C3
3. Cc1ccc(S(=O)(=O)N2CCCCC2)cc1NC(=O)CN1CC=C(c2ccccc2)CC1

A)
[14.2, 14.1, -0.529]

Each recorded value in this set is attributed to paper PMC4336329.
